# credit: PubChem BioAssay (NCI)

Test system: OVCAR-4 ovarian
Test: NCI tumour cell line growth inhibition, 48 h
I'd be grateful if you could share measured TGI for these entries.
One number for each entry, in µM.

Example entries and their recorded answers appear below.
molecule=O=C1C(=O)c2ccccc2C(O)=C1C(C1=C(O)c2ccccc2C(=O)C1=O)c1ccc(Cl)cc1 readout=TGI observed_value=18.6
molecule=COc1ccc2c(c1)/C(=C\c1c(Cl)[nH]c3cc(C)c(OC)cc13)C(=O)N2 readout=TGI observed_value=16.2
molecule=CC(C)CNc1nc(-c2ccccc2Cl)nc2ccccc12 readout=TGI observed_value=50.5
molecule=CC(=O)Oc1cc2c(cc1OC(C)=O)C1(C)CCC2(C)c2cc(OC(C)=O)c(OC(C)=O)cc21 readout=TGI observed_value=32.1

Continue with the molecule presented below.
Exam item: Answer with the recorded TGI of CCN(CC)CCNC(Cc1ccccc1)c1ccc(OCc2ccccc2)cc1 (stereo not given) only.
Marked response: 19.4

====

Test system: M19-MEL melanoma
Assay: NCI tumour cell line growth inhibition, 48 h
READOUT: TGI

molecule="O=C1C=C(C2OC(CO)C(O)C2O)C(=O)N1 (stereo unspecified)" readout=TGI observed_value="> 100 µM"

Report TGI for every entry below.
1. CNC(=O)OCc1nc(SSC(C)(C)C)n(C)c1COC(=O)NC
2. CC1(C)OCN(c2ccc(N3CCOCC3)cc2)Cn2c1nc1ccccc12
3. COc1ccc(NC(=O)CC/C(CC(=O)c2ccco2)=N/NC(=O)C(N)=O)cc1
4. COc1ccc([C@@]2(O)c3c(ccc(O)c3OC)[C@H]2OC)c(OC)c1
5. Nc1ncnc2c1ncn2C1C=C(CO)C(O)C1O (stereo unspecified)

Marked response:
13.6 µM
> 100 µM
> 100 µM
> 100 µM
> 100 µM

====

Task for the reader: assign each of the following compounds its reported TGI.
Tested on: SNB-19 CNS
Assay: NCI tumour cell line growth inhibition, 48 h

Examples with their reported TGI follow.
compound=CCOc1cccc(/C=N/NC(=O)c2cccc(Nc3ccnc(C(F)(F)F)c3)c2)c1O readout=TGI observed_value="> 100 µM"
compound=O=C(NC1=C(Cl)C(=O)c2ccccc2C1=O)c1ccccc1 readout=TGI observed_value="> 100 µM"
compound="N#Cc1c(-c2ccc(Cl)cc2)c2c(n(C3OC(CO)C(O)C(O)C3O)c1=S)CCCC2 (stereo not drawn)" readout=TGI observed_value="> 100 µM"
compound="CC12C=CC(C)(C3C(=O)C4C(C(=O)C31)C1(C)C=CC4(C)S1=O)S2=O (stereo not drawn)" readout=TGI observed_value="> 100 µM"
compound=CCN1C[C@]2(C)CC[C@H](O)C34C1C(C[C@@H]32)[C@@]1(O)CC[C@H]2C[C@@H]4[C@@H]1[C@H]2O readout=TGI observed_value="> 100 µM"

Required: TGI, one value per compound below.
1. COc1cc2c(cc1O)c(O)cc1c3cc(OC)c(OC)cc3c[n+](C)c21
2. CC(C)C(O)(C(C)C)C(C)C
3. C=C1c2c(C)nn(-c3ccc(C#CCOC4OC(CO)C(O)C(O)C4O)cc3)c2N(C)C23C[C@H]1C1(C)c4c(C)nn(-c5ccc(C#CCOC6OC(CO)C(O)C(O)C6O)cc5)c4N(C)C(C)(C[C@H]12)C3 (stereo partly drawn)

Marked response:
["> 100 µM", "> 100 µM", "3.95 µM"]

Provide TGI values for the following items, in order.
1. COc1ccc(C(C#N)NC23CC4CC(CC(C4)C2)C3)cc1 (stereo not drawn)
2. CCCCCCCC(CC(=O)NC(CO)C(=O)NC(CO)CC(C)C)OC(=O)CC(CCCCCCC)OC(=O)CC(CCCCCCC)OC1OC(C)C(O)C(OC2OC(C)C(OC(C)=O)C(O)C2O)C1O (stereo not drawn)
3. COc1ccc2c(c1)OC1=C(C(=O)OC1)C2c1cc(OC)c2c(c1)OCCO2 (stereo not drawn)
4. CC(=O)OCC1OC(N2C(c3ccccc3)=CC(c3cccs3)C(C#N)=C2S)C(OC(C)=O)C(OC(C)=O)C1OC(C)=O (stereo not drawn)
5. CC1=C2C(O)C(C(C)C(=O)N(C)C)CCC2(C)C=CC1=O (stereo not drawn)
6. CCCOC(=O)N[C@H]1CCc2c(Cl)c(OC)c(OC)c(OC)c2-c2ccc(SC)c(=O)cc21
7. O=C1C(=O)c2ccccc2C(O)=C1C(C1=C(O)c2ccccc2C(=O)C1=O)c1ccc(Cl)cc1
8. C/C(=N\NS(=O)(=O)c1ccc(C)cc1)c1ccccn1

Marked response:
1: > 100 µM; 2: 18.3 µM; 3: > 100 µM; 4: > 100 µM; 5: > 100 µM; 6: 27.4 µM; 7: 41.8 µM; 8: > 100 µM

Give one value of TGI per listed compound.
1. O=C(O)c1ccc(CN2CCC(CN[C@@H]3C[C@H]3c3ccccc3)CC2)cc1
2. CS(=O)(=O)Nc1ccc2ccccc2c1-c1c(NS(C)(=O)=O)ccc2ccccc12

Marked response:
1. > 100 µM
2. > 25 µM
